Values compiled from ChEMBL document CHEMBL4680063.

biological target: UniProt:P35372; test: Activity at human MOR expressed in CHOK1 cells co-expressing beta-arrestin2 EFC assessed as beta-arrestin2 EFC recruitment measured after 90 mins by PathHunter assay; assay type: ADME, cell-based, CHO-K1
Measured EC50 accompanies every entry in the list below.
endpointLabel: EC50

[[record]]
structurenotation = "COC(=O)CC[C@@H]1[C@H]2CCC[C@]1(c1cccc(O)c1)CCN2CCc1ccccc1"
recordedvalue = "> 25 µM"

[[record]]
structurenotation = "OC/C=C/[C@H]1[C@@H]2CCC[C@@]1(c1cccc(O)c1)CCN2CCc1ccccc1"
recordedvalue = "> 25 µM"

[[record]]
structurenotation = "OCCC[C@@H]1[C@H]2CCC[C@]1(c1cccc(O)c1)CCN2CCc1ccccc1"
recordedvalue = "> 25 µM"

[[record]]
structurenotation = "COC(=O)CC[C@@H]1[C@@H]2CCC[C@@]1(c1cccc(O)c1)CCN2CCc1ccccc1"
recordedvalue = "> 25 µM"

[[record]]
structurenotation = "OCCC[C@H]1[C@@H]2CCC[C@@]1(c1cccc(O)c1)CCN2CCc1ccccc1"
recordedvalue = "> 25 µM"

[[record]]
structurenotation = "CCC[C@H]1[C@@H]2CCC[C@@]1(c1cccc(O)c1)CCN2CCc1ccccc1"
recordedvalue = "> 25 µM"

[[record]]
structurenotation = "COC(=O)CC[C@H]1[C@@H]2CCC[C@@]1(c1cccc(O)c1)CCN2CCc1ccccc1"
recordedvalue = "0.00172 µM"

[[record]]
structurenotation = "Oc1cccc([C@@]23CCC[C@H]([C@H]2O)N(CCc2ccccc2)CC3)c1"
recordedvalue = "0.00608 µM"

[[record]]
structurenotation = "O=C(O)CC[C@H]1[C@@H]2CCC[C@@]1(c1cccc(O)c1)CCN2CCc1ccccc1"
recordedvalue = "> 25 µM"

[[record]]
structurenotation = "CCOC(=O)CC[C@H]1[C@@H]2CCC[C@@]1(c1cccc(O)c1)CCN2CCc1ccccc1"
recordedvalue = "0.0116 µM"

[[record]]
structurenotation = "COC(=O)/C=C/[C@H]1[C@@H]2CCC[C@@]1(c1cccc(O)c1)CCN2CCc1ccccc1"
recordedvalue = "> 25 µM"


---

Measured pEC50 accompanies every entry in the list below.
target: Mu-type opioid receptor (Homo sapiens, UniProt P35372); test: Agonist activity at human MOR expressed in CHOK1 cells assessed as inhibition of forskolin-stimulated cAMP accumulation incubated for 30 mins by luminescence assay; assay type: functional, cell-based, CHO-K1
Sequence (P35372 whole entry): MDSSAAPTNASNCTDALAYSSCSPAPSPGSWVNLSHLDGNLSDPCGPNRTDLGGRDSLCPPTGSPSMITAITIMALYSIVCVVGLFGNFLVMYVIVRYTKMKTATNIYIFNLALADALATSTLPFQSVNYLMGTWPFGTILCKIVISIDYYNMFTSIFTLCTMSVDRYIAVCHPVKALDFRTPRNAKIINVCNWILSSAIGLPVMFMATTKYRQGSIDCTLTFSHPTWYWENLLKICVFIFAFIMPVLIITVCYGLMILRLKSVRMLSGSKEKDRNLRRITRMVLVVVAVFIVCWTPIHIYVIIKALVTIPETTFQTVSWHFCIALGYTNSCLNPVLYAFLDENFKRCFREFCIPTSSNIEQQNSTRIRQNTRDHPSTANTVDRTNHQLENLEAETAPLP
pEC50: −log10 of the molar value.
endpointLabel: pEC50

[[record]]
structurenotation = "Oc1cccc([C@@]23CCC[C@H]([C@H]2O)N(CCc2ccccc2)CC3)c1"
recordedvalue = 10.77

[[record]]
structurenotation = "COC(=O)CC[C@H]1[C@@H]2CCC[C@@]1(c1cccc(O)c1)CCN2CCc1ccccc1"
recordedvalue = 9.34

[[record]]
structurenotation = "COC(=O)CC[C@@H]1[C@H]2CCC[C@]1(c1cccc(O)c1)CCN2CCc1ccccc1"
recordedvalue = 7.50

[[record]]
structurenotation = "COC(=O)/C=C/[C@H]1[C@@H]2CCC[C@@]1(c1cccc(O)c1)CCN2CCc1ccccc1"
recordedvalue = 6.88

[[record]]
structurenotation = "O=C(O)CC[C@H]1[C@@H]2CCC[C@@]1(c1cccc(O)c1)CCN2CCc1ccccc1"
recordedvalue = 7.50

[[record]]
structurenotation = "CCOC(=O)CC[C@H]1[C@@H]2CCC[C@@]1(c1cccc(O)c1)CCN2CCc1ccccc1"
recordedvalue = 9.62

[[record]]
structurenotation = "COC(=O)CC[C@@H]1[C@@H]2CCC[C@@]1(c1cccc(O)c1)CCN2CCc1ccccc1"
recordedvalue = 6.07

